Assay Remarks: Stability in human plasma after 120 mins
Type: ADME, cell-free
Experimental Parameters: read-out: Stability
Measured Attribute: remaining at 2 h (%)
Please state the figure in %; there is no need to write the unit.

Exercise: Fill blank: measured remaining at 2 h of the compound CC(OC(C)(C)C)[C@H](NC(=O)OCc1ccccc1)C(=O)N[C@@H](CC1CCCCC1)C(=O)N[C@H](C=O)C[C@@H]1CCNC1=O (stereo partly specified) is ____.
Solution: 83

----------
Assay Remarks: Stability in rat plasma after 30 mins
Format: ADME, cell-free
Experimental Parameters: read-out: Stability
Measured Attribute: remaining at 0.5 h
For clarity, give the value followed by its unit.

Exercise: Fill blank: measured remaining at 0.5 h of the compound CC(OC(C)(C)C)[C@H](NC(=O)OCc1ccccc1)C(=O)N[C@@H](CC1CCCCC1)C(=O)N[C@H](C=O)C[C@@H]1CCNC1=O (stereo partly specified) is ____.
Solution: 70%

----------
Assay Remarks: Stability in rat plasma after 120 mins
Type: ADME, cell-free
Experimental Parameters: read-out: Stability
Measured Attribute: remaining at 2 h (%)
Please state the figure in %; there is no need to write the unit.

Exercise: Fill blank: measured remaining at 2 h of the compound CC(OC(C)(C)C)[C@H](NC(=O)OCc1ccccc1)C(=O)N[C@@H](CC1CCCCC1)C(=O)N[C@H](C=O)C[C@@H]1CCNC1=O (stereo partly specified) is ____.
Solution: 73

----------
Assay Remarks: Stability in human plasma after 30 mins
Assay type: ADME, cell-free
Experimental Parameters: read-out: Stability
Measured Attribute: remaining at 0.5 h (%)
Please state the figure in %; there is no need to write the unit.

Exercise: Fill blank: measured remaining at 0.5 h of the molecule CC(OC(C)(C)C)[C@H](NC(=O)OCc1ccccc1)C(=O)N[C@@H](CC1CCCCC1)C(=O)N[C@H](C=O)C[C@@H]1CCNC1=O (stereo partly specified) is ____.
Solution: 81

----------
Assay Remarks: Stability in mouse plasma after 30 mins
Format: ADME
Experimental Parameters: read-out: Stability
Measured Attribute: remaining at 0.5 h (%)
Please state the figure in %; there is no need to write the unit.

Exercise: Fill blank: measured remaining at 0.5 h of the compound CC(OC(C)(C)C)[C@H](NC(=O)OCc1ccccc1)C(=O)N[C@@H](CC1CCCCC1)C(=O)N[C@H](C=O)C[C@@H]1CCNC1=O (stereo partly specified) is ____.
Solution: 84
